Some binders, each annotated with its measured EC50.
- measured on: T1, human GPC3 on CHO-K1-human GPC3 cells (CHOK1-hGPC3.2B5) (human, UniProt P51654 25-554)
- T1 construct: whole, on cells
- method notes: FACS, CHOK1-hGPC3.2B5 cells;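 further: flow cytometry of humanized antibodies binding to the cells over one hour in the cold, read as cell mean fluorescence intensity, with EC50 obtained by curve fitting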
In your response, the unit should come after the numeric value.

Worked cases, EC50 given:
[
  {
    "binder": "hAb005LH2L1a (antibody, human IgG1, V domains shown, Humanized F3.54.12; VH H2 + VL L1a; expressed as human IgG1) VH: EVQLVQSGAEVKKPGASVKVSCKASGYTFTDYEMHWVRQAPGQGLEWMGAIDPETGNTAYIQKFKGRVTLTTDKSTSTAYMELRSLRSDDTAVYYCTRFYSYSHWGQGTTVTVSS VL: DIVMTQTPLSLPVTPGEPASISCRSSQSLVHSDGNTYLHWYLQKPGQSPQLLIYKVSNRFSGVPDRFSGSGSGTDFTLKISRVEAEDVGVYYCSQNTHVPPTFGGGTKVEIK",
    "EC50": "118 nM"
  },
  {
    "binder": "hAb006LH3L1c (antibody, human IgG1, V domains shown, Humanized F3.38.7; VH H3 + VL L1c; expressed as human IgG1) VH: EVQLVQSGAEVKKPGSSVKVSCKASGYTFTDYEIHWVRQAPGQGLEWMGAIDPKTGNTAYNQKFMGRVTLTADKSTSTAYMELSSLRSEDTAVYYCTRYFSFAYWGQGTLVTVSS VL: DIVMTQTPLSLPVTPGEPASISCRSSQTFVHSNRNTYLQWYLQKPGQSPQLLIYKVSNRFSGVPDRFSGSGSGTDFTLKISRVEAEDVGVYYCFQGSHVPYTFGQGTKLEIK",
    "EC50": "1.16 nM"
  }
]

Task item: Quick one: EC50 for hAb003LH2L1b (antibody, human IgG1, V domains shown, Humanized F2.154.1; VH H2 + VL L1b; expressed as human IgG1) VH: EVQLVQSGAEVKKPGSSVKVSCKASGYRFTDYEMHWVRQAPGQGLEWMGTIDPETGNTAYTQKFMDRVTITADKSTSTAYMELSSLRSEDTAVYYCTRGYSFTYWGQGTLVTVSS VL: DIVMTQTPLSLPVTPGEPASISCRSSQNIVHSNRNTYLQWYLQKPGQSPQLLIFKVSNRFSGVPDRFSGSGSGTDFTLKISRVEAEDVGVYYCFQGSHVPFTFGQGTKLEIK ?
Reply: 0.584 nM

Data credit: patent US20260116991A1
